Target: His-tagged HMGB1 (UniProt P09429 P09429:1-215)
Sequence (P09429 whole entry, one chain of several): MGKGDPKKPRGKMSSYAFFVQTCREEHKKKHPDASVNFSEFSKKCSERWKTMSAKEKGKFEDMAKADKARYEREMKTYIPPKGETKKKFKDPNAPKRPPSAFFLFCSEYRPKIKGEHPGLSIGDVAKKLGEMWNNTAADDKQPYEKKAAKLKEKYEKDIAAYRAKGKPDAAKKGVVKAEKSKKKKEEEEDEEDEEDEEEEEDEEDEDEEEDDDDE
Test: SPR; 150 nM protein
Settings: tags: N-terminal His-tag
readout: binding result

Example cases with answers are listed next.
| binder | experimental.value |
| --- | --- |
| GGGAGACACGUAGCACCAGUGUGCCUGGACGUGCAGU (ssRNA, 2'-F on all C and U) [2'F-R8c6_1-27-S6] | binds |
| GGGCAGUAAGACACGUAGCACCAGUGCCUGGACGUGCAGU (ssRNA, 2'-F on all C and U) [2'F-R8c6_1-22-S8] | binds |
| GGGUAAGACACGUAGCACCAGUGUGCCUGGAGUGCAGU (ssRNA, 2'-F on all C and U) [2'F-R8c6_1-25-S6C2] | binds |
| GGGUAAGCACGUAGCACCAGUGUGCCUGGACGUGCAGU (ssRNA, 2'-F on all C and U) [2'F-R8c6_1-25-S6A] | binds |

Query: What value of binding result has been recorded for this entry: GGGGUAAGACACGUAGCACCAGUGCCUGGACGUGCAGU (ssRNA, 2'-F on all C and U) [2'F-R8c6_1-24-S8]
Reply: binds

Query: What value of binding result has been recorded for this entry: GGGUAAGACACGUAGAACCAGUGACUGGAAGUGCAGU (ssRNA, 2'-F on all C and U) [2'F-R8c6_1-25-S8CA]
Reply: binds
